molecular target: T1, human IL-8 (human, UniProt P10145 23-99, limits assumed); experiment: SPR Biacore T200, Protein A/G capture, pH 7.4, 40C;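 also: antibodies captured via Protein A/G, which was amine-coupled to a CM4 sensor chip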
T1 construct: also called hIL-8; hIL8
T1 sequence (P10145 23-99 limits assumed): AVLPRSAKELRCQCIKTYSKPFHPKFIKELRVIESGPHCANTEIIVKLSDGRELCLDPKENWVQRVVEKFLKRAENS
Below, each entry is listed with its recorded Kd.

binder	Kd
H1040/L0395 (antibody, human IgG1, kappa, name in Kabat numbering, V domains shown) VH: QVQLVESGGGLVQPGGSLRLSCAASGFTFSEYYLSWVRQAPGKGLEWVGLIRNKDNHHHPEYSASVKGRFTISRDDSKNSLYLTMSDLKTEDTAVYYCARENHRYDVELAYWGQGTLVTVSS VL: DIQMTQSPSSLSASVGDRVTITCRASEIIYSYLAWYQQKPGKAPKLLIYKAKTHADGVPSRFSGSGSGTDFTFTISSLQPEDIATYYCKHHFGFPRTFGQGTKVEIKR	0.26 nM
H1040/L0442 (antibody, human IgG1, kappa, name in Kabat numbering, V domains shown, L442 = L395 + S31E) VH: QVQLVESGGGLVQPGGSLRLSCAASGFTFSEYYLSWVRQAPGKGLEWVGLIRNKDNHHHPEYSASVKGRFTISRDDSKNSLYLTMSDLKTEDTAVYYCARENHRYDVELAYWGQGTLVTVSS VL: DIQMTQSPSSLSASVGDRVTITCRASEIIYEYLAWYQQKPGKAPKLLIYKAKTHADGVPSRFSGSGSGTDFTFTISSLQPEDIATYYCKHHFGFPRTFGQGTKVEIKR	0.34 nM

Origin of values: patent US20190169286A1
